test: NCI Yeast Anticancer Drug Screen. Data for the bub3 strain (AID 167); details: S. cerevisiae bub3 mutant strain, at 50.0 µM, active compounds read high
This is part of a sample that, as a whole, favours compounds with a hit. Of some 79,000 tested, about 15% had one in any assay.
Label YES when growth inhibition is at or above 10%; anything below gets NO.

[in] Reported growth inhibition reaches at least 10% for O=C1c2cc(Cl)ccc2-c2ccc(Cl)cc21 ?
[out] NO

[in] Reported growth inhibition reaches at least 10% for NC(N)=NS(=O)(=O)c1ccc(Nc2c3ccccc3nc3c(C(=O)N4CCN(CCO)CC4)cccc23)cc1 ?
[out] NO

[in] Reported growth inhibition reaches at least 10% for O=C1CNS(=O)(=O)N1 ?
[out] NO

[in] Reported growth inhibition reaches at least 10% for CC(C)(C)CC(C)(C)c1ccc(OCCOc2ccc(C(=O)Nc3ccc([N+](=O)[O-])cc3)cc2)cc1 ?
[out] NO

[in] Reported growth inhibition reaches at least 10% for O=C1c2ccccc2C(=O)C2CC(c3ccccc3)=CCC12 (configuration not stated) ?
[out] YES

[in] Reported growth inhibition reaches at least 10% for Nc1c(S(=O)(=O)O)cc(Nc2cccc(S(N)(=O)=O)c2)c2c1C(=O)c1ccccc1C2=O ?
[out] NO

[in] Reported growth inhibition reaches at least 10% for NNC(=O)c1cccc(C(=O)NN)n1 ?
[out] YES

[in] Reported growth inhibition reaches at least 10% for Cc1ccc(S(=O)(=O)CC(O)(C(C)C)C(C)C)cc1 ?
[out] YES

[in] Reported growth inhibition reaches at least 10% for CC/C(C)=N/C(=O)NN ?
[out] YES

[in] Reported growth inhibition reaches at least 10% for CCOC(=O)c1cc(C)[nH]c1C ?
[out] YES

[in] Reported growth inhibition reaches at least 10% for CC(C)CCc1c(N)nc(N)[nH]c1=O ?
[out] NO

###

test: NCI Yeast Anticancer Drug Screen. Data for the bub3 strain (AID 167); conditions: S. cerevisiae bub3 mutant strain, at 50.0 µM
The panel holds about 79,000 compounds, 15% with a hit somewhere; the sample as a whole holds those more often. Calls of active or inactive are those of the source. Cut-off read from the data, not from the text of the source: active = growth inhibition above about 70%; inactive = the rest. *1 amine or outer side, *2 acyl side, *3 side chain or, on linkers, in order; H or OH if unused. Where a SMILES comes first, the peptide text is derived from it. [ ]: non-standard residue; d: D form. The star is where a group is joined. X17 = CC(=O)N(C)SCC(N[*:1])C(=O)[*:2]; Fmoc = O=C(OCC1c2ccccc2-c2ccccc21)*; For = O=C*
Select the correct class. Options are active, inactive and nothing else.

[in] Outcome? Cc1cc(NCCN(C(C)C)C(C)C)nc(Nc2nc3cc(Cl)c(Cl)cc3[nH]2)n1
[out] inactive

[in] Outcome? C[S+](C)c1ccc(Cl)cc1
[out] inactive

[in] Outcome? CCOC(=O)CCC(NC(=O)OCc1ccccc1)C(=O)NC(CCC(=O)OCC)C(=O)NC(CCC(=O)OCC)C(=O)NC(CCC(=O)OCC)C(=O)NC(CCC(=O)OCC)C(=O)NC(CCC(=O)OCC)C(=O)NC(CCC(=O)OCC)C(=O)OCC (configuration not stated)
[out] inactive

[in] Outcome? CC(=O)N(C)SCC(NC(=O)C(Cc1ccccc1)NC(=O)OCC1c2ccccc2-c2ccccc21)C(=O)NC(Cc1ccccc1)C(=O)NC(Cc1cn(C=O)c2ccccc12)C(=O)NC(CCCCNC(=O)OCC1c2ccccc2-c2ccccc21)C(=O)NC(C(=O)NC(CSN(C)C(C)=O)C(=O)NC(C(N)=O)C(C)O)C(C)O (configuration not stated) (Fmoc-F[X17]FW(For)K(Fmoc)T[X17]T-NH2; configuration not given here)
[out] active

[in] Outcome? O=[N+]([O-])c1ccccc1C1SCc2nc3ccccc3n21 (configuration not stated)
[out] inactive

[in] Outcome? COc1ccc(N=Nc2sc(N)nc2-c2cccc([N+](=O)[O-])c2)cc1
[out] inactive

[in] Outcome? O=C(/C=C\c1ccccc1)c1ccc(-c2cccc(-c3ccccc3)c2)cc1
[out] inactive

[in] Outcome? CC(=O)C1C(=O)C(=O)N(c2ccccc2N2C(=O)C(=O)C(C(C)=O)C2=O)C1=O (configuration not stated)
[out] inactive

[in] Outcome? Cc1cc(O)c2c(c1)C[C@@H](O)C1=C2C(=O)c2c(O)ccc(OC3CC(O)C(OC4CC(OC5CCC(OC6CC(O)C(OC7CC(OC8CCC(O)C(C)O8)C(O)C(C)O7)C(C)O6)C(C)O5)C(O)C(C)O4)C(C)O3)c2C1=O (some centres not stated)
[out] active

[in] Outcome? O=C(O)CC1CCCc2ccccc2C1=O (configuration not stated)
[out] inactive

[in] Outcome? COc1cc(C2c3c(cc(OC)c(O)c3OC)C=C(C(=O)O)C2CO)cc(OC)c1O (configuration not stated)
[out] inactive

[in] Outcome? O=N[C@@H]1CCC[C@H](Cl)C1
[out] inactive

[in] Outcome? CCOc1ccc(Nc2ccc3c(O)cc(S(=O)(=O)O)cc3c2)cc1
[out] inactive

[in] Outcome? CC1(C)CNC[C@](C)(OCc2ccccc2)N1
[out] inactive

[in] Outcome? CCN(CC)CCCNc1nc2ccccc2c2[nH]c3ccc(OC)cc3c12
[out] inactive

[in] Outcome? COC(=O)c1cc(/C=C/C(=O)Cc2ccccc2)cn1S(=O)(=O)c1ccccc1
[out] inactive

[in] Outcome? c1ncn(Sn2cncn2)n1
[out] inactive
